Molecular target: full length recombinant Pim-1 protein (Homo sapiens, UniProt P11309)
Construct: by full length recombinant Pim-1, Pim-2, or Pim-3 protein; hexahistidine tag followed by a thrombin cleavage site (N); made in house; host or cells: Sf9 (baculovirus) or E. coli (pET28)
Assay: Pim-1 enzyme assay (HTRF, phosphorylation of biotinylated-BAD (S112) peptide)
Assay type: biochemical
Conditions: enzyme assay, Pim-1; read-out: Pim_1_IC50
test-readout: IC50 (nM)

| compound | endpoint-value |
| --- | --- |
| Fc1cccc(F)c1-c1ccc2[nH]cc(-c3cncc(O[C@@H]4CCCNC4)n3)c2c1 | 2 |

P = Fc1cncc(-c2ccc3[nH]nc(-c4cncc(O[C@@H]5CCCNC5)n4)c3c2)c1
Q = Nc1ncc(-c2ccc3[nH]nc(-c4cncc(N5CCC(N)CC5)n4)c3c2)c(NC2CCCC2)n1
R = NC1CCN(c2cncc(-c3c[nH]c4ccc(-c5c(F)cccc5Cl)cc34)n2)CC1 [Example 27, bis(2,2,2-trifluoroacetate)]
Sort low-to-high on IC50, please. In plain terms: list the labels in the order you were asked to.
R, P, Q

* * *

Molecular target: full length recombinant Pim-1 protein (Homo sapiens)
Construct: by full length recombinant Pim-1, Pim-2, or Pim-3 protein; hexahistidine tag followed by a thrombin cleavage site (N); made in house; host or cells: Sf9 (baculovirus) or E. coli (pET28)
Assay: Pim-1 enzyme assay (HTRF, phosphorylation of biotinylated-BAD (S112) peptide)
Format: biochemical
Details: read-out: Pim_1_IC50
test-readout: IC50 (nM)

| molecule | IC50, nM |
| --- | --- |
| COC(=O)c1ccc2[nH]cc(-c3cncc(N[C@@H]4CCCNC4)n3)c2c1 | 4 |
| CC(C)Nc1nc(-c2n[nH]c3ccc(-c4c(F)cccc4F)cc23)cc(=O)[nH]1 | 5 |
| c1cc2[nH]nc(-c3cncc(NC4CC4)n3)c2cc1-c1cncc(C2CC2)n1 | 2 |
| COc1cncc(-c2n[nH]c3ccc(-c4nccc(NC5CC5)n4)cc23)n1 | 50 |
| CC(=O)Nc1cc(-c2ccc3[nH]cc(-c4cncc(O[C@@H]5CCCNC5)n4)c3c2)cc(C(F)(F)F)c1 | 30 |
| c1cc2[nH]nc(-c3cncc(O[C@H]4CNCCC45CC5)n3)c2cc1N1CCOCC1 | 17 |
| c1cc(OC2CCCC2)nc(-c2ccc3[nH]cc(-c4cncc(O[C@@H]5CCCNC5)n4)c3c2)c1 | 31 |
| N#Cc1ccc2[nH]nc(-c3cncc(N[C@@H]4CCCNC4)n3)c2c1 | 70 |
| NC1CCN(c2cncc(-c3n[nH]c4ccc(-c5nccc6[nH]ccc56)cc34)n2)CC1 | 3 |
| c1ccc(-c2ccc3[nH]cc(-c4cncc(O[C@@H]5CCCNC5)n4)c3c2)cc1 | 4 |

1 = COc1cncc(-c2n[nH]c3ccc(-c4cc(C(F)(F)F)ccn4)cc23)n1
2 = CC1CCNCC1Oc1cncc(-c2n[nH]c3ccc(-c4c(F)cccc4F)cc23)n1 (single isomer, unassigned) [Example 423]
3 = c1cc2c(cc1-c1ccc3[nH]cc(-c4cncc(O[C@@H]5CCCNC5)n4)c3c1)OCO2
4 = CC(=O)c1ccc2[nH]nc(-c3cncc(O[C@H]4CNCCC45CC5)n3)c2c1
Rank descending by IC50. In plain terms: list the labels in the order you were asked to.
1, 4, 2, 3

P = COc1cc(-c2c[nH]c3ccc(-c4c(F)cccc4F)cc23)nc(O[C@@H]2CCCNC2)n1
Q = COc1c(C)cc(-c2ccc3[nH]cc(-c4cncc(O[C@@H]5CCCNC5)n4)c3c2)cc1C
Lab note: record which item had the higher IC50, P or Q . Respond with the label that goes with your answer.
P
(P: 834 nM, Q: 8 nM)

* * *

Target: full length recombinant Pim-3 protein (Homo sapiens)
Construct: by full length recombinant Pim-1, Pim-2, or Pim-3 protein; purchased Millipore (UK)
Assay: Pim-3 enzyme assay (HTRF, phosphorylation of biotinylated-BAD (S112) peptide)
Format: biochemical
Details: read-out: Pim3 IC50
test-readout: IC50 (nM)

| smiles-repr | tested-on | unit-annotation | IC50 |
| --- | --- | --- | --- |
| NC1CCN(c2cncc(-c3n[nH]c4ccc(-c5cc(=O)[nH]cc5Cl)cc34)n2)CC1 | full length recombinant Pim-3 protein (Homo sapiens) | nM | 15 |

1 = CC(C)Oc1cncc(-c2ccc3[nH]cc(-c4cccc(N5CCOCC5)n4)c3c2)n1
2 = NC1CCN(c2cncc(-c3n[nH]c4ccc(-c5ccccc5O)cc34)n2)CC1
3 = CN(C)C(=O)c1ccc(F)c(-c2ccc3[nH]nc(-c4cncc(N5CCC(N)CC5)n4)c3c2)c1
Sort low-to-high on IC50, please. In plain terms: list the labels in the order you were asked to.
2, 3, 1

* * *

Target: full length recombinant Pim-3 protein (Homo sapiens, UniProt Q86V86)
Construct: by full length recombinant Pim-1, Pim-2, or Pim-3 protein
Assay: Pim-3 enzyme assay (HTRF, phosphorylation of biotinylated-BAD (S112) peptide)
Conditions: read-out: Pim3 IC50
test-readout: IC50 (nM)

P = Fc1cccc(F)c1-c1ccc2[nH]nc(-c3cncc(Nc4ccccc4)n3)c2c1
Q = c1cc2c(cc1-c1ccc3[nH]nc(-c4cncc(O[C@@H]5CCCNC5)n4)c3c1)OCCO2
R = CN(C)c1cncc(-c2n[nH]c3ccc(-c4c(F)cccc4F)cc23)n1
Sort entries by IC50 from minimum to maximum value. In plain terms: list the labels in the order you were asked to.
Q, R, P

* * *

Target: Pim-1 stably transfected into the U2OS human osteogenic sarcoma line (Homo sapiens)
Construct: expressed in transfected cells; host or cells: U2OS human osteogenic sarcoma line
Sequence (P11309 whole entry): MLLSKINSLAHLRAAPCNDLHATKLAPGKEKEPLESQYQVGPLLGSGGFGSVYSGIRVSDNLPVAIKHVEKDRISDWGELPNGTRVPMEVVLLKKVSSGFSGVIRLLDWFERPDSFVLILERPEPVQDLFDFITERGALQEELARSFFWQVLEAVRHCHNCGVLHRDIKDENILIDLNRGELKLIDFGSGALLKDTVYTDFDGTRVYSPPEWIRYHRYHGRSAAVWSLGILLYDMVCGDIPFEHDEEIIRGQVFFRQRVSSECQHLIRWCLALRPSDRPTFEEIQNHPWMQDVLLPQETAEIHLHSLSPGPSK
Assay: Pim cell assay, phospho-BAD normalized against total BAD, U2OS stably transfected with Pim-1
Type: cell-based
Conditions: U2OS stably transfected with Pim-1; phospho-BAD normalized against total BAD; 29 min incubation; read-out: Pim1_Cell_IC50_
test-readout: IC50 (nM)

Solved cases (5 shown):
| compound | IC50 (nM) |
| --- | --- |
| CC(C)Oc1cncc(-c2ccc3[nH]cc(-c4nnc(N5CCC[C@H](N)C5)o4)c3c2)n1 | 1010 |
| CC1(C)CNCCC1Oc1cncc(-c2n[nH]c3ccc(-c4c(F)cccc4F)cc23)n1 (single isomer, unassigned) [Example 433] | 801 |
| c1cc2[nH]nc(-c3cncc(OC4CCNCC4)n3)c2cc1-c1cncc(C2CC2)n1 | 22 |
| c1cc(OC2CCC2)nc(-c2ccc3[nH]cc(-c4cncc(O[C@@H]5CCCNC5)n4)c3c2)c1 | 2540 |
| Nc1cncc(-c2ccc3[nH]nc(-c4cncc(OCCF)n4)c3c2)n1 | 61 |

P = CC(C)Oc1cncc(-c2n[nH]c3ccc(-c4cncc(C5CC5)n4)cc23)n1
Q = Clc1ccccc1-c1ccc2[nH]nc(-c3cncc(O[C@H]4CNCCC45CC5)n3)c2c1
Lab note: record which item had the higher IC50, P or Q . Respond with the label that goes with your answer.
P

* * *

Target: full length recombinant Pim-2 protein (Homo sapiens)
Construct: by full length recombinant Pim-1, Pim-2, or Pim-3 protein; hexahistidine tag followed by a thrombin cleavage site (N); made in house; host or cells: Sf9 (baculovirus) or E. coli (pET28)
Sequence (Q9P1W9 whole entry): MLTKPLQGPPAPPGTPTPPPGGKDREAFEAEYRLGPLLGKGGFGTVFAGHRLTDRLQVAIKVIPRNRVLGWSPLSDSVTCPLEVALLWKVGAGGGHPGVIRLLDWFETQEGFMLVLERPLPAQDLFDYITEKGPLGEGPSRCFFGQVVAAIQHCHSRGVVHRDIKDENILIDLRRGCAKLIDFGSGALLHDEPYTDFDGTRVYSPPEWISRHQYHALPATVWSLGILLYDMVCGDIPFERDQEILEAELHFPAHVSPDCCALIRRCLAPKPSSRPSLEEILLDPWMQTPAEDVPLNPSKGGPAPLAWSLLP
Assay: Pim-2 enzyme assay (HTRF, phosphorylation of biotinylated-BAD (S112) peptide)
Type: biochemical
Details: enzyme assay, Pim-2; read-out: Pim2_IC50
Experimental: These cDNAs were used as templates in PCR reactions to produce full-length DNA clones of the PIMs. […] This step was repeated 3× and the resin was transferred to a 2.5 cm glass column. […] Fractions were analyzed by SDS-PAGE and those containing the protein of interest were pooled and concentrated. […] The final buffer conditions were as follows: 60 mM Hepes, pH 7.0, 0.05% BSA, 2 mM DTT. […] For each plate, percent of control (POC) values were calculated for each well. […]
pIC50: −log10 of the molar value.
test-readout: pIC50

| compound | pIC50 |
| --- | --- |
| Fc1cccc(F)c1-c1ccc2[nH]nc(-c3cncc(O[C@@H]4CNCC[C@H]4F)n3)c2c1 (single isomer, unassigned) [Example 18] | 6.58 |
| FC(F)(F)Oc1cccc(-c2ccc3[nH]nc(-c4cncc(O[C@@H]5CCCNC5)n4)c3c2)c1 | 6.67 |

a = N[C@@H]1CCN(c2cncc(-c3c[nH]c4ccc(-c5c(F)cccc5F)cc34)n2)C1
b = CC(C)Oc1cncc(-c2ccc3[nH]cc(-c4cncc(O[C@@H]5CCCNC5)n4)c3c2)n1
c = N#Cc1ccccc1-c1ccc2[nH]nc(-c3cncc(N4CCC(N)CC4)n3)c2c1
Rank descending by pIC50. In plain terms: list the labels in the order you were asked to.
c, a, b
(c: 7.44, a: 6.73, b: 6.46)
